Answer each item with its documented pIC50.
Target sequence: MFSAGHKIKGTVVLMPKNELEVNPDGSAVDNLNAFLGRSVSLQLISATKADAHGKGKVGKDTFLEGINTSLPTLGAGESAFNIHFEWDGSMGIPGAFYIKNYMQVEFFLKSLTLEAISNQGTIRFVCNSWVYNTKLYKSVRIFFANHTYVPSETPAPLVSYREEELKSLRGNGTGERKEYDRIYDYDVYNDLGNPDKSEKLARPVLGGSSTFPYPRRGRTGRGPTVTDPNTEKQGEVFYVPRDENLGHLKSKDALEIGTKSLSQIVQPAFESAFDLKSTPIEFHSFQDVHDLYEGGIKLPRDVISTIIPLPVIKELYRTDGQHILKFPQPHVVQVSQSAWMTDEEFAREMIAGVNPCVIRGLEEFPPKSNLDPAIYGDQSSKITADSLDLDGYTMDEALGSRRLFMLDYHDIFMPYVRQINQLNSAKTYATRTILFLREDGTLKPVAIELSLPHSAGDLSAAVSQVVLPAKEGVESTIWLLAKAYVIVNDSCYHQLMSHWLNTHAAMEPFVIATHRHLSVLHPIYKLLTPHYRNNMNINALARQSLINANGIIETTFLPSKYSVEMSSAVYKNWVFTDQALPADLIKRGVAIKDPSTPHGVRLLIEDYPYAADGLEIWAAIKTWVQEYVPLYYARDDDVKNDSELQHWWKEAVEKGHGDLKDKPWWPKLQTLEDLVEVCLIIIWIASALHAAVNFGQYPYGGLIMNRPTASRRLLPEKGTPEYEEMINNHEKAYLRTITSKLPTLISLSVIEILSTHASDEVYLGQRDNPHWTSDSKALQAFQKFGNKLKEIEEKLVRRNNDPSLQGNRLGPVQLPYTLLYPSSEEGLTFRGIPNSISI
Answers are plain numbers, as −log10 of the molar value.

Would you please look over these solved cases?
> print(dat)
                         compound.structure  test.readout  meas.value
1  CC1(C)CC(=O)C(C(c2ccccc2[N+](=O)[O-])C2C(=O)CC(C)(C)CC2=O)C(=O)C1         pIC50        3.72
2  CC1(C)CC(=O)C(C(c2ccccc2)C2C(=O)CC(C)(C)CC2=O)C(=O)C1         pIC50        4.48
3  CN(C)c1ccc(C(C2C(=O)CC(C)(C)CC2=O)C2C(=O)CC(C)(C)CC2=O)cc1         pIC50        4.76
4  CC1(C)CC(=O)C(C(c2ccc(/C=C/c3ccccc3)cc2)C2C(=O)CC(C)(C)CC2=O)C(=O)C1         pIC50        5.11
5  COc1ccc(C(C2C(=O)CC(C)(C)CC2=O)C2C(=O)CC(C)(C)CC2=O)cc1         pIC50        4.67

For every item in the list below, what is its measured pIC50?
1. Cc1ccc(C(C2C(=O)CC(C)(C)CC2=O)C2C(=O)CC(C)(C)CC2=O)o1
2. CC1(C)CC(=O)C(C(c2ccc(/C(Br)=C/c3ccccc3)cc2)C2C(=O)CC(C)(C)CC2=O)C(=O)C1
3. CC1(C)CC(=O)C(C(c2ccc(O)c(Br)c2)C2C(=O)CC(C)(C)CC2=O)C(=O)C1

Response given:
1: 4.90; 2: 4.45; 3: 4.57

The measured values listed here are drawn from BindingDB's records for doi:10.1080/14756360701408754.
